Tested on: HCC-2998 colon
Test: NCI tumour cell line growth inhibition, 48 h
Collected TGI values appear next to each entry.

- molecule: "O=c1c(-c2nc3ccccc3c3ccccc3c2=O)nc2ccccc2c2ccccc12"
  system_tested: "HCC-2998 colon"
  TGI: "68 µM"
- molecule: "FC(F)(F)c1ccccc1C1SCc2nc3ccccc3n21 (configuration not stated)"
  system_tested: "HCC-2998 colon"
  TGI: "> 100 µM"
- molecule: "C/C(=C\\C(=O)Nc1ccc2n[nH]nc2c1)Nc1ccc2n[nH]nc2c1"
  system_tested: "HCC-2998 colon"
  TGI: "> 100 µM"
- molecule: "COC(=O)/C=C(C)/C=C\\COC1CCCCO1 (configuration not stated)"
  system_tested: "HCC-2998 colon"
  TGI: "> 100 µM"
- molecule: "CC(C)(Oc1ccc(-c2cccc3ccccc23)cc1)C(=O)O"
  system_tested: "HCC-2998 colon"
  TGI: "> 100 µM"
- molecule: "COc1ccc2nc3ccccc3c(NCCNCCO)c2c1"
  system_tested: "HCC-2998 colon"
  TGI: "2.5 µM"
- molecule: "CC(=O)CCC1(c2ccccc2)OC(=O)C(C#N)=C1c1ccccc1 (configuration not stated)"
  system_tested: "HCC-2998 colon"
  TGI: "> 100 µM"
- molecule: "c1ccc(C(Oc2noc3ccccc23)c2ccccc2)cc1"
  system_tested: "HCC-2998 colon"
  TGI: "44.7 µM"
- molecule: "CC(C)c1cc(=O)[nH]c2cc(N)ccc12"
  system_tested: "HCC-2998 colon"
  TGI: "> 100 µM"
- molecule: "COC(=O)c1ccccc1C1CN=NC12Cc1ccc(C)cc1C2=O (configuration not stated)"
  system_tested: "HCC-2998 colon"
  TGI: "> 100 µM"
- molecule: "Cc1ccc(/C=c2\\cc3oc(=O)c4cccc(c4-3)c2=O)cc1"
  system_tested: "HCC-2998 colon"
  TGI: "> 100 µM"
- molecule: "CN(C(=O)Cc1ccccc1)n1cn[n+](CC(=O)OC(C)(C)C)c1"
  system_tested: "HCC-2998 colon"
  TGI: "> 10 µM"
